tested on: SK-OV-3; test: NCI tumour cell line growth inhibition, 48 h
Active and inactive are the calls of the source. No stated cut-off is given here; in the data, active = GI50 up to about 1.1 µM and inactive = higher.
Outcomes: 1 (active), 0 (inactive)

molecule	target.or.system	class
C/C(=N\Nc1nc2ccccc2o1)c1cccc[n+]1[O-]	SK-OV-3	0
C=C(COC(C)=O)CC(/C=C(\C)CCC=C(C)C)OC(C)=O (stereo not drawn)	SK-OV-3	0
O=[N+]([O-])c1cccc2nc3ccccc3c(NCCCCNc3c4ccccc4nc4cccc([N+](=O)[O-])c34)c12	SK-OV-3	1
CC1=C[C@@H](C)C[C@]2(C)CC[C@H](O2)[C@]23CC[C@](C(=O)O)(C[C@H](O2)[C@@H]2O[C@@](C)(CC2=O)[C@@H](O)[C@H]2CC[C@@]4(CCC[C@@H](O4)[C@H](C)C(=O)O[C@H]4C[C@H]([C@]5(O)OCC[C@H](C)[C@@H]5O)O[C@H]4C=C1)O2)O3	SK-OV-3	0
CC(C)=CC(=O)C1c2cccc(O)c2C(=O)c2c(O)cc(C)cc21 (stereo not drawn)	SK-OV-3	0
c1ccc2nc3c(nc2c1)sc1ccccc13	SK-OV-3	0
COC(=O)c1ccccc1NC(=O)/C(=N\NC(C)(C)C)C(C#N)c1nc(-c2ccc([N+](=O)[O-])cc2)cs1 (stereo not drawn)	SK-OV-3	0
Cc1ccc(N(C)S(=O)(=O)c2ccc([N+](=O)[O-])cc2)cc1	SK-OV-3	0
